target: Fes (UniProt P07332); assay: phosphorylation enrichment, bacterial display (enrichment ratio); higher = better substrate or ligand; peptides without Tyr show the background
Sequence (P07332 whole entry, looked up): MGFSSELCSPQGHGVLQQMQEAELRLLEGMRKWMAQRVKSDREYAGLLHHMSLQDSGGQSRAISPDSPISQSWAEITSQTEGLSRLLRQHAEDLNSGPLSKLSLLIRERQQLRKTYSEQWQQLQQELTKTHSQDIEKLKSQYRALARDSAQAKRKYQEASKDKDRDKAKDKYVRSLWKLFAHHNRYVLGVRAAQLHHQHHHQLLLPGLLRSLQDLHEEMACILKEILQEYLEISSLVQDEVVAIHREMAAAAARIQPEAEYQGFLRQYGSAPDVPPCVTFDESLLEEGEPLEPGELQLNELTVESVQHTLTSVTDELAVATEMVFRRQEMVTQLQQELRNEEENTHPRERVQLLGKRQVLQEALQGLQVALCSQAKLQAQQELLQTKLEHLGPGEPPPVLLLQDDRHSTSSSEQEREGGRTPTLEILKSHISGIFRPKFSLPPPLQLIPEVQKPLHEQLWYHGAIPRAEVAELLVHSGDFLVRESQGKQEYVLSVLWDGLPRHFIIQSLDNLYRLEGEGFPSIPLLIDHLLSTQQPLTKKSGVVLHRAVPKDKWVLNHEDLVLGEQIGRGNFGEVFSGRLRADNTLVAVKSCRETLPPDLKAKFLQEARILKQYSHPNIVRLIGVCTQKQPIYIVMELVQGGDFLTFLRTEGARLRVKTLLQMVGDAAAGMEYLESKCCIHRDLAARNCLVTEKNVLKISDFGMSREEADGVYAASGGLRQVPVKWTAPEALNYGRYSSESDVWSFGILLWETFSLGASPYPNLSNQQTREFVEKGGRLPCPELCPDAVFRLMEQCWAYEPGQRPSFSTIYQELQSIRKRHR
The following sequences are listed with their measured phosphorylation enrichment values.

{"columns": ["residue-sequence", "phosphorylation enrichment"],
 "data": [
  ["FGLQAYTKVKT [ALDH2_Y502_E504K_YF]", 1.23],
  ["QELRRYLESGV [MICA_Y194_K196E]", 0.812],
  ["REVPVYISEDS [SYNM_Y460_G462S]", 2.71],
  ["APSGNYVACGG [GNB1_Y111]", 0.788],
  ["FETSHYPASPD [CTNND2_Y1217_YF]", 0.77],
  ["ELTSVYGSRAR [SENP1_Y349_D350G]", 0.633],
  ["HSLHDYKEALM [ADA2_Y337]", 0.844],
  ["IHETTYNSIMK [ACTA1_Y281]", 0.711],
  ["GHLYAYNWISI [BEST1_Y227_D228N]", 1.49],
  ["RENGPYYASYP [GDAP2_Y487_T489A]", 0.869],
  ["GGQVFYNSEYG [FLT4_Y1333]", 0.779],
  ["ASLLPYFPAIM [IPO4_Y518]", 0.938],
  ["IDNKMYDPKMN [ENPP1_Y280]", 0.729],
  ["RSFSPCDFQPC [TNS1_Y796_Y796C_YF]", 0.972],
  ["NGSKGYAFVHF [PABPC5_Y147_YF]", 0.875],
  ["KSDVVYTDWKK [ORM1_Y175]", 1.02],
  ["NREGVYTDFAP [TGFBI_Y537_V539D]", 1.13],
  ["ELETLYKKAVK [CC2D2A_Y381]", 0.896],
  ["PLDGEYSTLQI [TP53_Y327_F328S]", 1.53],
  ["ADNQRYAFMPL [TMEM87B_Y460_N456D]", 0.812],
  ["YKGKKYKPLDL [RPL35_Y78]", 0.541],
  ["DPHQQYFIAMD [TBX15_Y159_YF]", 1.1],
  ["LVMFIYAIFGM [SCN1A_Y1684]", 1.88],
  ["QNTADYYDLYG [PTPN11_Y62_G60A]", 1.02],
  ["HKLSSYEYDFE [BTK_Y40_Y39S]", 1.51],
  ["KEDSAYGSQSV [NFKB2_Y868]", 1.07],
  ["SIKGKYVTALF [KCNH2_Y611_D609G_YF]", 0.798],
  ["TDKLFYIFTPG [SLC27A4_Y243_S247P_YF]", 1.49],
  ["NFATLYLKIYH [PDE6B_Y219]", 1.28]
]}

* * *

biological target: c-Src SH2; experiment: SH2 binding enrichment of the phosphorylated peptide, bacterial display (enrichment ratio); higher = better substrate or ligand; peptides without Tyr show the background;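 further: peptide library displayed on the E. coli surface as eCPX fusions, selected cells deep-sequenced, score is each peptide's frequency after selection divided by its frequency in the input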
The following sequences are listed with their measured SH2 binding enrichment values.
test-readout: SH2 binding enrichment

{"columns": ["residue-sequence", "test-readout", "observed-result"],
 "data": [
  ["FADIAYNYRHA [PAH_Y166_G171A]", "SH2 binding enrichment", 0.549],
  ["QTLEAYIRCNK [SPAST_Y604_W607C]", "SH2 binding enrichment", 0.474],
  ["DGLASYLDKVR [KRT12_Y139_R135G]", "SH2 binding enrichment", 0.437],
  ["KPNMNYDKLSQ [FLI1_Y332_R337Q]", "SH2 binding enrichment", 1.15],
  ["KKHIPYRQHKS [CSNK1G2_Y206_E208Q]", "SH2 binding enrichment", 1.79],
  ["QFQLKYSETPF [SIX6OS1_Y129_YF]", "SH2 binding enrichment", 0.625],
  ["NDFGNYSNQSS [HNRNPA1_Y318_N319S]", "SH2 binding enrichment", 0.421],
  ["FSPGSYERETF [NF1_Y2192]", "SH2 binding enrichment", 0.495],
  ["GPCKAYELSQR [SETX_Y1297_R1294C]", "SH2 binding enrichment", 0.634],
  ["KMKGDYFRFLA [YWHAG_Y130_YF]", "SH2 binding enrichment", 1.22],
  ["SHGQDYLVGNK [GSTA1_Y147]", "SH2 binding enrichment", 0.432],
  ["GVPLGYPIKAS [ELN_Y206_P211S]", "SH2 binding enrichment", 0.423],
  ["RAVLLYEFVGK [NATD1_Y45_YF]", "SH2 binding enrichment", 0.972],
  ["AQINLYQDVML [ZNF806_Y33]", "SH2 binding enrichment", 0.685],
  ["MFNPCYGLFEY [NEDD4L_Y680_Y679C]", "SH2 binding enrichment", 0.641],
  ["GSIQQYTYKQE [PRG4_Y1271_I1272T]", "SH2 binding enrichment", 0.384],
  ["SVVVHYEPPEV [TP53_Y220_P219H]", "SH2 binding enrichment", 1.68],
  ["WNEVGYDDIGG [VCP_Y203_L198W]", "SH2 binding enrichment", 9.33],
  ["ISDNAYQYMLT [MYH7_Y162]", "SH2 binding enrichment", 1.13],
  ["TEALFYTDDTA [ADPRS_Y75_YF]", "SH2 binding enrichment", 0.615],
  ["PTEAQYRFIYM [PTPN11_Y511_Q506P]", "SH2 binding enrichment", 0.335],
  ["LHRHAYPEQQQ [DPPA2_Y127_R131Q]", "SH2 binding enrichment", 0.906],
  ["FKIFRYTLNDN [FN1_Y1975_L1974R_YF]", "SH2 binding enrichment", 0.548],
  ["LVPPRYVRSEI [PKP2_Y194_A195V]", "SH2 binding enrichment", 0.506],
  ["RCFVFYFSFLL [PTEN_Y177_R173C_YF]", "SH2 binding enrichment", 1.27],
  ["QRDSSYYWEIE [RAF1_Y340]", "SH2 binding enrichment", 10.6],
  ["VTVLDYDKIGK [SYT1_Y365]", "SH2 binding enrichment", 2.88],
  ["NLTLKYPIEHG [ACTA1_Y71_I66N]", "SH2 binding enrichment", 0.507],
  ["YSMGCYEISLG [HMGCL_Y198]", "SH2 binding enrichment", 0.582]
]}
